Answer each item with its documented pEC50.
study target: human CB2 (Homo sapiens (Human))
assay comment: In vitro cannabinoid receptor activity assay (calcium mobilization, FLIPR) in CHO cells expressing human CB2 and Gαq16
condition description: CHO cells, hCB2, calcium fluorescence; read-out: hCB2 Ca EC50
As a rule, pEC50 stands for the negative log10 of the concentration, concentration in M.

Recall the recorded pEC50 for CC(C)(NC(=O)c1nn(Cc2ccc(F)cc2)c2ccccc12)c1cccc(NC(N)=O)c1 with human CB2 (Homo sapiens (Human)) and state it. 6.80

Recall the recorded pEC50 for CC(C)(NC(=O)c1nn(Cc2ccc(F)cc2)c2ccccc12)C1CCN(C(N)=O)CC1 with human CB2 (Homo sapiens (Human)) and state it. 6.85

Recall the recorded pEC50 for CC(C)(NC(=O)c1nn(CCCCCF)c2ccccc12)c1cccc(C(N)=O)c1 with human CB2 (Homo sapiens (Human)) and state it. 7.08

Recall the recorded pEC50 for CC(C)(NC(=O)c1cn(Cc2ccc(F)cc2)c2ccccc12)c1cccc(C(N)=O)c1 with human CB2 (Homo sapiens (Human)) and state it. 6.80

Recall the recorded pEC50 for CC(C)(NC(=O)c1nn(CC2CCOCC2)c2ccccc12)c1cccc(NC(N)=O)c1 with human CB2 (Homo sapiens (Human)) and state it. 7.03

Recall the recorded pEC50 for CC(C)(NC(=O)c1nn(Cc2ccc(F)cc2)c2ccccc12)C1CCCN(CC(N)=O)C1 (centres unmarked) with human CB2 (Homo sapiens (Human)) and state it. 7.20

Recall the recorded pEC50 for CNC(=O)Nc1cccc(C(C)(C)NC(=O)c2nn(CCCCCF)c3ccccc23)c1 with human CB2 (Homo sapiens (Human)) and state it. 7.19

Recall the recorded pEC50 for CC(C)(NC(=O)c1nn(CC2CCOCC2)c2ccccc12)c1cccc(C(N)=O)c1 with human CB2 (Homo sapiens (Human)) and state it. 7.20
